Listing of entries alongside the reported EC50.
System: HIV-1 (IIIB)
Test: microbe, parasite or virus in culture
Format: cell-based
Details: Human immunodeficiency virus 1, IIIB, MT4, 120 h, HIV-1 (IIIB) in MT-4 cells, 5 days incubation, Cell Titer Glo; read-out: MT4 EC50
measured metric: EC50 (nM)

{"molecule": "C[C@H]1CC[C@]2(CC(OCC(F)(F)F)=NO2)[C@H]2CN1C(=O)c1c(O)c(=O)c(C(=O)NCc3ccc(F)cc3F)cn12 [Example 46]", "measured result": 1.7}
{"molecule": "C[C@H]1CC[C@@]2(COCCO2)[C@H]2CN1C(=O)c1c(O)c(=O)c(C(=O)NCc3c(F)cc(F)cc3F)cn12 [Example 140]", "measured result": 1.8}
{"molecule": "CC1=N[C@]2(CC[C@H](C)N3C[C@H]2n2cc(C(=O)NCc4ccc(F)cc4F)c(=O)c(O)c2C3=O)ON1C [Example 149b]", "measured result": 1.4}
{"molecule": "COc1ccc(CN2O[C@@]3(CC[C@H](C)N4C[C@H]3n3cc(C(=O)NCc5c(F)cc(F)cc5F)c(=O)c(O)c3C4=O)CC2=O)cc1 [Example 119]", "measured result": 1.5}
{"molecule": "CCC1=NO[C@@]2(CC[C@H](C)N3C[C@H]2n2cc(C(=O)NCc4c(F)cc(F)cc4F)c(=O)c(O)c2C3=O)C1 [Example 67]", "measured result": 1.3}
{"molecule": "CCCC1=NO[C@@]2(CC[C@H](C)N3C[C@H]2n2cc(C(=O)NCc4c(F)cc(F)cc4F)c(=O)c(O)c2C3=O)C1 [Example 68]", "measured result": 1.2}
{"molecule": "[2H]C([2H])([2H])OC1=NO[C@@]2(CC[C@H](C)N3C[C@H]2n2cc(C(=O)NCc4ccc(F)cc4F)c(=O)c(O)c2C3=O)C1 [Example 153]", "measured result": 0.9}
{"molecule": "C[C@H]1CC[C@@]2(OC[C@@H](Cc3ccccc3)O2)[C@H]2CN1C(=O)c1c(O)c(=O)c(C(=O)NCc3c(F)cc(F)cc3F)cn12 (single isomer, unassigned) [169 (peak 1)]", "measured result": 4.9}
{"molecule": "C[C@H]1CCC2(OCCCO2)[C@H]2CN1C(=O)c1c(O)c(=O)c(C(=O)NCc3c(F)cc(F)cc3F)cn12 [Example 128]", "measured result": 1.1}
{"molecule": "C[C@@H]1OC[C@]2(CC[C@H](C)N3C[C@H]2n2cc(C(=O)NCc4c(F)cc(F)cc4F)c(=O)c(O)c2C3=O)O1 [Example 133]", "measured result": 1.7}
{"molecule": "C[C@H]1CC[C@]2(CC(=O)N(Cc3cnn(C)n3)O2)[C@H]2CN1C(=O)c1c(O)c(=O)c(C(=O)NCc3c(F)cc(F)cc3F)cn12 [Example 104]", "measured result": 2.6}
{"molecule": "COCC1=NO[C@@]2(CC[C@H](C)N3C[C@H]2n2cc(C(=O)NCc4ccc(F)cc4F)c(=O)c(O)c2C3=O)C1 [Example 22]", "measured result": 1.3}
{"molecule": "C[C@H]1CC[C@]2(CC(c3ccccn3)=NO2)[C@H]2CN1C(=O)c1c(O)c(=O)c(C(=O)NCc3ccc(F)cc3F)cn12 [Example 13]", "measured result": 4.3}
{"molecule": "C[C@H]1CC[C@]2(COCCO2)[C@H]2CN1C(=O)c1c(O)c(=O)c(C(=O)NCc3c(F)cc(F)cc3F)cn12 [Example 139]", "measured result": 1.4}
{"molecule": "CC1=NO[C@@]2(CC[C@H](C)N3C[C@H]2n2cc(C(=O)NCc4c(F)cc(F)cc4F)c(=O)c(O)c2C3=O)[C@H]1F [Example 32]", "measured result": 1.5}
{"molecule": "C[C@H]1CC[C@]2(CC(Br)=NO2)[C@H]2CN1C(=O)c1c(O)c(=O)c(C(=O)NCc3ccc(F)cc3F)cn12 [Example 44]", "measured result": 0.7}
{"molecule": "COC[C@@H]1CO[C@]2(CC[C@H](C)N3C[C@H]2n2cc(C(=O)NCc4c(F)cc(F)cc4F)c(=O)c(O)c2C3=O)O1 (single isomer, unassigned) [168 (peak 2)]", "measured result": 2}
{"molecule": "C[C@H]1CC[C@]2(CC=NO2)[C@H]2CN1C(=O)c1c(O)c(=O)c(C(=O)NCc3c(F)cc(F)cc3F)cn12 [Example 72]", "measured result": 1.2}
{"molecule": "CC1=NO[C@@]2(CC[C@H](C)N3C[C@H]2n2cc(C(=O)NCc4c(F)cc(F)cc4F)c(=O)c(O)c2C3=O)[C@@H]1F [Example 33]", "measured result": 0.7}
{"molecule": "COC1=NO[C@@]2(CC[C@H](C)N3C[C@H]2n2cc(C(=O)NCc4ccc(F)c(Cl)c4F)c(=O)c(O)c2C3=O)C1 [Example 49]", "measured result": 0.7}
{"molecule": "COC1=NO[C@]2(CC[C@H](C)N3C[C@H]2n2cc(C(=O)NCc4c(F)cc(F)cc4F)c(=O)c(O)c2C3=O)C1 [Example 37]", "measured result": 1.6}
{"molecule": "C[C@H]1CC[C@]2(CC(=O)NO2)[C@H]2CN1C(=O)c1c(O)c(=O)c(C(=O)NCc3ccc(F)cc3F)cn12 [Example 156]", "measured result": 18.1}
{"molecule": "C[C@H]1CC[C@]2(CC(=O)N(Cc3ccc(F)cc3F)O2)[C@H]2CN1C(=O)c1c(O)c(=O)c(C(=O)NCc3c(F)cc(F)cc3F)cn12 [Example 110]", "measured result": 1.2}
{"molecule": "CC1=NO[C@@]2(CC[C@H](C)N3C[C@H]2n2cc(C(=O)NCc4c(F)cc(F)cc4F)c(=O)c(O)c2C3=O)C1 [Example 3]", "measured result": 0.9}

###

Recorded CC50 at 5 days, one value per entry.
Assay: in vitro
Details: human, uninfected MT-4 cells

{"compound": "C[C@H]1CO[C@]2(CC[C@H](C)N3C[C@H]2n2cc(C(=O)NCc4c(F)cc(F)cc4F)c(=O)c(O)c2C3=O)O1 [Example 127]", "CC50 at 5 days": "49.9 µM"}
{"compound": "C[C@H]1CC[C@]2(CC(c3cccnc3)=NO2)[C@H]2CN1C(=O)c1c(O)c(=O)c(C(=O)NCc3ccc(F)cc3F)cn12 [Example 14]", "CC50 at 5 days": "16.7 µM"}
{"compound": "C[C@H]1CC[C@]2(CC(Br)=NO2)[C@H]2CN1C(=O)c1c(O)c(=O)c(C(=O)NCc3ccc(F)cc3F)cn12 [Example 44]", "CC50 at 5 days": "24.4 µM"}
{"compound": "C[C@H]1CC[C@]2(COC(F)(F)O2)[C@H]2CN1C(=O)c1c(O)c(=O)c(C(=O)NCc3c(F)cc(F)cc3F)cn12 [Example 141]", "CC50 at 5 days": "30.4 µM"}
{"compound": "C[C@H]1CC[C@]2(CC(OCC(F)F)=NO2)[C@H]2CN1C(=O)c1c(O)c(=O)c(C(=O)NCc3ccc(F)cc3F)cn12 [Example 47]", "CC50 at 5 days": "27.5 µM"}
{"compound": "C[C@H]1CC[C@]2(CC(n3cnnc3)=NO2)[C@H]2CN1C(=O)c1c(O)c(=O)c(C(=O)NCc3c(F)cc(F)cc3F)cn12 [Example 76]", "CC50 at 5 days": "10.1 µM"}

###

Assay: in vitro
Conditions: human, uninfected MT-4 cells
Parameter CC50 at 5 days: see the listing below.

{"molecule": "CC1=NO[C@@]2(CC[C@H](C)N3C[C@H]2n2cc(C(=O)NCc4c(F)cc(F)cc4F)c(=O)c(O)c2C3=O)[C@@H]1F", "CC50 at 5 days": "14.1 µM"}
{"molecule": "CC1=NO[C@@]2(CC[C@H](C)N3C[C@H]2n2cc(C(=O)NCc4c(F)cc(F)cc4F)c(=O)c(O)c2C3=O)[C@H]1O", "CC50 at 5 days": "30 µM"}
{"molecule": "CC1=NO[C@@]2(CC[C@H](C)N3C[C@H]2n2cc(C(=O)NCc4c(F)cc(F)cc4F)c(=O)c(O)c2C3=O)O1", "CC50 at 5 days": "24.9 µM"}
{"molecule": "C[C@H]1CC[C@]2(Cc3ccccc3O2)[C@H]2CN1C(=O)c1c(O)c(=O)c(C(=O)NCc3c(F)cc(F)cc3F)cn12", "CC50 at 5 days": "24.4 µM"}
{"molecule": "CC1=NO[C@@]2(CC[C@H](C)N3C[C@H]2n2cc(C(=O)NCc4ccc(F)cc4F)c(=O)c(O)c2C3=O)C1=O", "CC50 at 5 days": "≥ 50 µM"}
{"molecule": "C[C@H]1CC[C@@]2(CC(O)CO2)[C@H]2CN1C(=O)c1c(O)c(=O)c(C(=O)NCc3c(F)cc(F)cc3F)cn12 (stereo partly drawn)", "CC50 at 5 days": "≥ 50 µM"}
